Target: Sko1 (UniProt Q02100)
Sequence: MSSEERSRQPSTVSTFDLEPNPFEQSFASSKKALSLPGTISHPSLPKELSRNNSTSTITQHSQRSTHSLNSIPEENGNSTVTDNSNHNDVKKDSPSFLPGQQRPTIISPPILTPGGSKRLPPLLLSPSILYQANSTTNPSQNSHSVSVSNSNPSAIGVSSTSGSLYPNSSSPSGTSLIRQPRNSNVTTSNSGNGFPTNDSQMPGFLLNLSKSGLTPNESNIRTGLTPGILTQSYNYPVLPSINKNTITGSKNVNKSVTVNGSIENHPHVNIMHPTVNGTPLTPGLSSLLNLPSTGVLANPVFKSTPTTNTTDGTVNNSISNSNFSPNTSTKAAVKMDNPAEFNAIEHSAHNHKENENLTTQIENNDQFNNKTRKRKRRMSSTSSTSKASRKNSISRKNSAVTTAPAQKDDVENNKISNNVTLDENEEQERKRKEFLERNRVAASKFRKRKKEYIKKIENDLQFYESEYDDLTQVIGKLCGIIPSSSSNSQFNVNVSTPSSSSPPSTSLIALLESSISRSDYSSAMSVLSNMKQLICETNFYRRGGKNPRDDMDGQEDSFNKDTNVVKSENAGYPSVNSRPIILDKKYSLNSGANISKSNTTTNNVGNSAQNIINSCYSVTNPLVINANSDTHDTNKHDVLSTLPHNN
Test: PBM E-score (8-mer binding enrichment) (E-score (-0.5 to 0.5)); higher = stronger / more preferred TF binding
Details: protein concentration: 200 nM; construct: GST-full length
The full ranking holds about 33,000 sequences; the median of “E-score (-0.5 to 0.5)” is about -0.032, and the highest 2% start at about 0.36. The full list was thinned out, with the highest values kept by preference.
Quick reference: PBM E-score of the listed items.
Metric: PBM E-score

Record sequence: CGATCTAA
Target or test system: Sko1 (UniProt Q02100)
Number: 0.0385
//
Record sequence: AATTTCAC
Target or test system: Sko1 (UniProt Q02100)
Number: -0.0415
//
Record sequence: GGCCATCA
Target or test system: Sko1 (UniProt Q02100)
Number: -0.165
//
Record sequence: TGCGTACA
Target or test system: Sko1 (UniProt Q02100)
Number: 0.36
//
Record sequence: AAAGGTGA
Target or test system: Sko1 (UniProt Q02100)
Number: -0.09
//
Record sequence: ACGCAAGG
Target or test system: Sko1 (UniProt Q02100)
Number: 0.316

* * *

Target: Sko1 (UniProt Q02100)
Sequence: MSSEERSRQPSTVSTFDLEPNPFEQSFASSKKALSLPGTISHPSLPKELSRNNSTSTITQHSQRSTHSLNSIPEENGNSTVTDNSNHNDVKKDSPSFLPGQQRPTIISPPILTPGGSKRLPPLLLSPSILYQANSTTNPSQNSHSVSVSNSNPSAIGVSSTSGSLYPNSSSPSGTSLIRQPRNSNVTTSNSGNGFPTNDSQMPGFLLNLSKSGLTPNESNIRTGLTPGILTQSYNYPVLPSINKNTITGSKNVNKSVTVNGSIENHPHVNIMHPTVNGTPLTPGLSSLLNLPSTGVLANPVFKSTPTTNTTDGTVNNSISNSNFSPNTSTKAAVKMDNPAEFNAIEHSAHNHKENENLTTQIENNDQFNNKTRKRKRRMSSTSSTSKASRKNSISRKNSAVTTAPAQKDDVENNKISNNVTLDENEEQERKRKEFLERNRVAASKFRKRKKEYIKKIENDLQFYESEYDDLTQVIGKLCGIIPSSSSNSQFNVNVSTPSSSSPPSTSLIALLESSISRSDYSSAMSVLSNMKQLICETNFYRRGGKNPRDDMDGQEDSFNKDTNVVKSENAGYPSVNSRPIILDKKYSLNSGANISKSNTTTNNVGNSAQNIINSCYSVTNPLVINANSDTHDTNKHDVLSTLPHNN
Test: PBM E-score (8-mer binding enrichment) (E-score (-0.5 to 0.5)); higher = stronger / more preferred TF binding
Settings: protein concentration: 200 nM; construct: GST-full length
In all, about 33,000 sequences were measured (“E-score (-0.5 to 0.5)”: median about -0.032, highest 2% from about 0.36 on). Many of the other results were omitted from the sample, so the highest values are more common in it than they were.
Classes are defined on PBM E-score with ranges range A = under 0.1, range B = from 0.1 up to 0.3, range C = 0.3 and over

Record sequence: AAATGACC
Class: range A

Record sequence: ATGTCGTA
Class: range C

Record sequence: TAATGACA
Class: range C

Record sequence: GTGTCGTA
Class: range C

Record sequence: AAGCTACG
Class: range B

Record sequence: CAGGTAAC
Class: range A

Record sequence: GGGTTGCA
Class: range A

Record sequence: GTCATCAA
Class: range C

Record sequence: CAGTGAGA
Class: range A

Record sequence: GAATGACA
Class: range B

Record sequence: ATTGTTAC
Class: range C

Record sequence: GACATCAA
Class: range B

Record sequence: CTGTCGTC
Class: range B

Record sequence: GTCATCAC
Class: range C

Record sequence: ATGTCGGC
Class: range A

Record sequence: AAATGACA
Class: range B

Record sequence: CGATGACC
Class: range A

Where these numbers come from: the supplement of paper PMC3334620
